The values you see were collected from paper PMC6925144.

Target: NAD-dependent deacetylase Sirtuin 1 (human)
Sequence (Q96EB6 2-747 limits assumed): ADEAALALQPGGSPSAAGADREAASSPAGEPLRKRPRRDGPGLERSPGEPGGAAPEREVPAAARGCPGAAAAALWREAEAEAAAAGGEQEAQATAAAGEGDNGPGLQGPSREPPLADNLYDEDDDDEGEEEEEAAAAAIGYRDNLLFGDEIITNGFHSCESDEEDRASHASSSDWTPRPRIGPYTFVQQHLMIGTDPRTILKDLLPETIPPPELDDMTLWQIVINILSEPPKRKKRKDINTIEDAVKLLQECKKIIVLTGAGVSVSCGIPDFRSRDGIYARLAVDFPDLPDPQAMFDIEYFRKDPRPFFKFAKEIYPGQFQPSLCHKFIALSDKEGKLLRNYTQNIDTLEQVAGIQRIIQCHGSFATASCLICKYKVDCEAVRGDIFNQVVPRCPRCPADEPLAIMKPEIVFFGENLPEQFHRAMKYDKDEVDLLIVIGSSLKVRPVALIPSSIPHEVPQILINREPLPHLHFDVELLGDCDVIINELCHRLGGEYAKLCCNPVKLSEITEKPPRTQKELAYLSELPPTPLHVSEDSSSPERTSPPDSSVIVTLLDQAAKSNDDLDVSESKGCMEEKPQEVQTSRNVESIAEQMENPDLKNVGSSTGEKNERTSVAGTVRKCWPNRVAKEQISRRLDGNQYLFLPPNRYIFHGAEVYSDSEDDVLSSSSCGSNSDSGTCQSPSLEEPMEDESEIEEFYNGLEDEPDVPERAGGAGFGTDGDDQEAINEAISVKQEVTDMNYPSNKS
Assay: primary screen, delta tm
Design: single well (n = 1)
Conditions: 10 µM
Over roughly 3,200 compounds, “TSA(without NAD+) / Primary screening (TSA) / delta Tm (K)” has its median near -0.07; the highest 2% begin near 0.37. The full list was thinned out, with the highest values kept by preference.
TSA(without NAD+) / Primary screening (TSA) / delta Tm (K) values by entry
assay-endpoint: TSA(without NAD+) / Primary screening (TSA) / delta Tm (K)

molecule	tgt	observed
Cc1ccccc1N1C(=O)c2ccc(C(=O)OCC(N)=O)cc2C1=O	NAD-dependent deacetylase Sirtuin 1 (human)	-0.08 K
CCC(N)COC (stereo not drawn)	NAD-dependent deacetylase Sirtuin 1 (human)	-0.18 K
CCc1cc2c(N3CCCC3)nc(C)nc2s1	NAD-dependent deacetylase Sirtuin 1 (human)	-0.07 K
O=C(c1cnc2ccccc2n1)N1CCCC1c1nc2ccccc2s1 (stereo not drawn)	NAD-dependent deacetylase Sirtuin 1 (human)	-0.04 K
O=C(Nc1cccc(S(=O)(=O)N2CCOCC2)c1)c1cn(-c2ccccc2)nc1-c1ccc(Cl)cc1	NAD-dependent deacetylase Sirtuin 1 (human)	0.58 K
Cc1ccc2c(c1)c(=O)n(C)c1nnc(CN3CCc4ccccc4C3)n21	NAD-dependent deacetylase Sirtuin 1 (human)	-0.32 K
Cc1nc2c(C(N)=O)ncn2c(C)c1CCC(=O)Nc1ccc(F)c(C(N)=O)c1	NAD-dependent deacetylase Sirtuin 1 (human)	0.02 K
Cc1cc(N(C)C)n2nc(C(F)(F)F)c(-c3ccccc3)c2n1	NAD-dependent deacetylase Sirtuin 1 (human)	-0.18 K
O=C(C1=C(O)C(=O)N(CCCN2CCOCC2)C1c1ccco1)c1cc2ccccc2o1 (stereo not drawn)	NAD-dependent deacetylase Sirtuin 1 (human)	0.02 K
Cc1cc(CSc2nc3ccccc3[nH]2)no1	NAD-dependent deacetylase Sirtuin 1 (human)	0.07 K
CCSCCOC(=O)c1ccc2[nH]c(C(F)F)nc2c1	NAD-dependent deacetylase Sirtuin 1 (human)	-0.04 K
CC1(C)CC1N (stereo not drawn)	NAD-dependent deacetylase Sirtuin 1 (human)	-0.22 K
Cc1ccc(-n2c(C)c(C)c3c(N)ncnc32)cc1	NAD-dependent deacetylase Sirtuin 1 (human)	0.02 K
CN(c1ccccc1)S(=O)(=O)c1ccc(C(=O)Nc2cccc(S(=O)(=O)N3CCOCC3)c2)cc1	NAD-dependent deacetylase Sirtuin 1 (human)	0.02 K
CN(C(=O)Cc1ccc(NC(=O)NCc2ccc(-n3cncn3)nc2)cc1)c1ccccc1	NAD-dependent deacetylase Sirtuin 1 (human)	0.08 K
CC1CN(S(=O)(=O)c2cccc(C(=O)OCC(=O)COC(=O)c3cccc(S(=O)(=O)N4CC(C)OC(C)C4)c3)c2)CC(C)O1 (stereo not drawn)	NAD-dependent deacetylase Sirtuin 1 (human)	-0.11 K
c1nc(N2CCNCC2)c2sccc2n1	NAD-dependent deacetylase Sirtuin 1 (human)	-0.08 K
O=C(Nc1cccc(S(=O)(=O)N2CCOCC2)c1)c1cn(-c2ccccc2)nc1-c1ccccc1	NAD-dependent deacetylase Sirtuin 1 (human)	-0.02 K
CN(Cc1nc2ccccc2s1)C(=O)CSc1nnc(CC2CCS(=O)(=O)C2)o1 (stereo not drawn)	NAD-dependent deacetylase Sirtuin 1 (human)	-0.13 K
O=C(NN/C=C1/C(=O)N(c2cccc(C(F)(F)F)c2)C(=O)c2ccccc21)c1cccc(S(=O)(=O)Nc2ccccc2Cl)c1	NAD-dependent deacetylase Sirtuin 1 (human)	1.45 K
Cn1ncc2c(=O)n(CC(=O)N3CCCc4c(C(N)=O)cccc43)cnc21	NAD-dependent deacetylase Sirtuin 1 (human)	-0.18 K
